I'd be grateful if you could share measured pEC50 for these entries.
Study System: Growth hormone secretagogue receptor type 1 (Homo sapiens)
Experiment Notes: Agonist activity at GHSR
Give bare numbers, as −log10 of the molar value.

# count of solved cases: 2
>  <Compound>
C[C@@H](Oc1cccc(Cl)c1)C(=O)N(Cc1ccccc1)C[C@H]1CCCN1

>  <Study System>
Growth hormone secretagogue receptor type 1 (Homo sapiens)

>  <pEC50>
5.82

$$$$
>  <Compound>
CC(Oc1ccccc1)C(=O)N(Cc1ccc(Cl)cc1)C[C@H]1CCCN1 (some centres not stated)

>  <Study System>
Growth hormone secretagogue receptor type 1 (Homo sapiens)

>  <pEC50>
6.66

$$$$

Hello, I would appreciate it if you could give pEC50 for each entry below.
1. CC(Oc1ccccc1Cl)C(=O)N(C[C@H]1CCCN1)c1cccc(Cl)c1 (some centres not stated)
2. CC(Oc1ccccc1Cl)C(=O)N(Cc1ccccc1Cl)C[C@H]1CCCN1 (some centres not stated)
3. CC(Oc1ccccc1)C(=O)N(C[C@H]1CCCN1)c1ccc(CC#N)cc1 (some centres not stated)
4. CC(=O)Nc1cccc(N(C[C@H]2CCCN2)C(=O)C(C)Oc2ccccc2Cl)c1 (some centres not stated)

1. 6.60
2. 6.59
3. 5.05
4. 6.70

For each of the items listed, what is its pEC50?
1. Cc1cccc(CN(C[C@H]2CCCN2)C(=O)C(C)Oc2ccccc2Cl)c1 (some centres not stated)
2. CC(=O)Nc1ccc(N(C[C@H]2CCCN2)C(=O)C(C)Oc2ccccc2)cc1 (some centres not stated)
3. CC(Oc1cccc(Cl)c1)C(=O)N(C[C@H]1CCCN1)c1cccc(Cl)c1 (some centres not stated)

7.05
6.48
7.40

Would you mind listing pEC50 for each of the following compounds?
1. CCC(Oc1ccccc1)C(=O)N(C[C@H]1CCCN1)c1cccc(-c2ccccc2)c1OC (some centres not stated)
2. Cc1ccccc1CN(C[C@H]1CCCN1)C(=O)[C@@H](C)Oc1cccc(Cl)c1
3. CC(Oc1ccccc1Cl)C(=O)N(Cc1ccc(Cl)cc1)C[C@H]1CCCN1 (some centres not stated)
4. COc1cccc(N(C[C@H]2CCCN2)C(=O)C(C)Oc2ccccc2)c1 (some centres not stated)
5. CC(Oc1ccccc1Cl)C(=O)N(Cc1ccccc1)C[C@H]1CCCN1 (some centres not stated)
6. Cc1ccccc1CN(C[C@H]1CCCN1)C(=O)C(C)Oc1ccccc1Cl (some centres not stated)
7. CC(Oc1ccccc1)C(=O)N(C[C@H]1CCCN1)c1ccc(Cl)cc1 (some centres not stated)
8. Cc1cccc(CN(C[C@H]2CCCN2)C(=O)C(C)Oc2ccccc2)c1 (some centres not stated)

1. 5.70
2. 6.74
3. 7.22
4. 5.40
5. 7.70
6. 6.85
7. 6.22
8. 7.10

Count: 6. Required value per item: pEC50.
1. CC(=O)Nc1ccc(N(C[C@H]2CCCN2)C(=O)C(C)Oc2cccc(Cl)c2)cc1 (some centres not stated)
2. CC(Oc1cccc(Cl)c1)C(=O)N(C[C@H]1CCCN1)c1ccc(Cl)cc1 (some centres not stated)
3. CC(Oc1cccc(Cl)c1)C(=O)N(C[C@H]1CCCN1)c1ccccc1Cl (some centres not stated)
4. CC(Oc1cccc(Cl)c1)C(=O)N(Cc1cccc(Cl)c1)C[C@H]1CCCN1 (some centres not stated)
5. CC(=O)Nc1ccc(N(C[C@H]2CCCN2)C(=O)[C@H](C)Oc2cccc(Cl)c2)cc1
6. CC(Oc1ccccc1)C(=O)N(Cc1cccc(Cl)c1)C[C@H]1CCCN1 (some centres not stated)

1. 7.52
2. 6.92
3. 6.11
4. 7.70
5. 7.70
6. 7.30

Hi team, please reply with pEC50 for each item in this list.
1. Cc1ccccc1CN(C[C@H]1CCCN1)C(=O)C(C)Oc1ccccc1 (some centres not stated)
2. Cc1cccc(CN(C[C@H]2CCCN2)C(=O)C(C)Oc2cccc(Cl)c2)c1 (some centres not stated)
3. CC(=O)Nc1ccc(N(C[C@H]2CCCN2)C(=O)[C@@H](C)Oc2cccc(Cl)c2)cc1
4. CC(Oc1ccccc1)C(=O)N(C[C@H]1CCCN1)c1cccc(Cl)c1 (some centres not stated)
5. CC(Oc1ccccc1)C(=O)N(C[C@H]1CCCN1)c1ccccc1Cl (some centres not stated)
6. Cc1ccccc1CN(C[C@H]1CCCN1)C(=O)C(C)Oc1cccc(Cl)c1 (some centres not stated)

7.40
6.92
5.92
7.05
5.90
8.52

Please go through the list and note pEC50 for each compound.
1. CC(=O)Nc1ccc(N(C[C@H]2CCCN2)C(=O)COc2ccccc2)cc1
2. CC(=O)Nc1cccc(N(C[C@H]2CCCN2)C(=O)C(C)Oc2cccc(Cl)c2)c1 (some centres not stated)
3. CC(=O)Nc1cccc(N(C[C@H]2CCCN2)C(=O)C(C)Oc2ccccc2)c1 (some centres not stated)
4. Cc1ccccc1CN(C[C@H]1CCCN1)C(=O)[C@H](C)Oc1cccc(Cl)c1
5. CCC(Oc1ccccc1)C(=O)N(C[C@H]1CCCN1)c1ccc(NC(C)=O)cc1 (some centres not stated)
6. CC(=O)Nc1ccc(N(C[C@H]2CCCN2)C(=O)C(C)Oc2ccccc2Cl)cc1 (some centres not stated)

[5.70, 6.85, 6.00, 8.70, 5.40, 7.30]

---

Provide the recorded EC50 for the entries that follow.
Study System: Growth hormone secretagogue receptor type 1 (Homo sapiens, UniProt Q92847)
Sequence (Q92847 whole entry): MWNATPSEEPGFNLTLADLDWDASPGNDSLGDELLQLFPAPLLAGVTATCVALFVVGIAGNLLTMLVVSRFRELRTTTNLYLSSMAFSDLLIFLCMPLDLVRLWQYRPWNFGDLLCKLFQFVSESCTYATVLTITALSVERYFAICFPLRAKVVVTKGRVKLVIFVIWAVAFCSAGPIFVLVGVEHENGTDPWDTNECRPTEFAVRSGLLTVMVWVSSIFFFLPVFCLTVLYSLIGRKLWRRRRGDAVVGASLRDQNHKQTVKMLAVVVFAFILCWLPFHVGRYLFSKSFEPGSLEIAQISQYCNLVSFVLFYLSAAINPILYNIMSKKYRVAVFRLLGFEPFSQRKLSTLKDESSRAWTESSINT
Experiment Notes: Agonist activity at GHSR
Numbers only, in µM.

>  <Compound>
C[C@H](Oc1cccc(Cl)c1)C(=O)N(Cc1ccccc1)C[C@H]1CCCN1

>  <Readout Value>
0.004

$$$$
>  <Compound>
CC(Oc1ccccc1)C(=O)N(Cc1ccccc1)C[C@H]1CCCN1 (stereo not given in full)

>  <Readout Value>
0.09

$$$$
>  <Compound>
CC(Oc1cccc(Cl)c1)C(=O)N(Cc1ccccc1Cl)C[C@H]1CCCN1 (stereo not given in full)

>  <Readout Value>
0.04

$$$$
>  <Compound>
CC(Oc1ccccc1)C(=O)N(Cc1ccccc1Cl)C[C@H]1CCCN1 (stereo not given in full)

>  <Readout Value>
0.15

$$$$

Note: attention shifts to another entry.
Tell me the measured EC50 of CC(Oc1ccccc1Cl)C(=O)N(Cc1cccc(Cl)c1)C[C@H]1CCCN1 (stereo not given in full) , please.
0.01

---

I'd be grateful if you could share measured log10 of EC50 for these entries.
Study System: Growth hormone secretagogue receptor type 1 (Homo sapiens)
Experiment Notes: Agonist activity at GHSR
All values: base-10 log of EC50 in nM.

>  <Compound>
COc1c(-c2ccccc2)cccc1N(C[C@H]1CCCN1)C(=O)COc1ccccc1

>  <log10 of EC50>
3.70

$$$$
>  <Compound>
CC(Oc1cccc(Cl)c1)C(=O)N(Cc1ccccc1)C[C@H]1CCCN1 (stereo not given in full)

>  <log10 of EC50>
0.85

$$$$
>  <Compound>
CC(Oc1cccc(Cl)c1)C(=O)N(Cc1ccc(Cl)cc1)C[C@H]1CCCN1 (stereo not given in full)

>  <log10 of EC50>
1.48

$$$$
>  <Compound>
CC(Oc1cccc(Cl)c1)C(=O)N(C[C@H]1CCCN1)c1ccccc1 (stereo not given in full)

>  <log10 of EC50>
2.08

$$$$

Now examine the next entry.
Item: CCC(Oc1ccccc1)C(=O)N(C[C@H]1CCCN1)c1ccc(CC#N)cc1 (stereo not given in full) Test system: Growth hormone secretagogue receptor type 1 (Homo sapiens) Read-out: log10 of EC50 Value: ?
4.15

---

Study System: Growth hormone secretagogue receptor type 1 (Homo sapiens)
Experiment Notes: Agonist activity at GHSR
Type: functional
For each of the molecules below, state its pEC50.
One number for each entry, as −log10 of the molar value.

Use the examples below as a reference point.
>  <Molecule>
CSc1cccc(N(C[C@H]2CCCN2)C(=O)C(C)Oc2ccccc2)c1 (some centres undefined)

>  <pEC50>
5.70

$$$$
>  <Molecule>
CCC(Oc1ccccc1)C(=O)N(Cc1ccccc1)C[C@H]1CCCN1 (some centres undefined)

>  <pEC50>
6.05

$$$$

// next entry
Looking for the measured pEC50 of CC(Oc1ccccc1)C(=O)N(C[C@H]1CCCN1)c1ccccc1 (some centres undefined) , can you help?
6.36

---

Study System: Growth hormone secretagogue receptor type 1 (Homo sapiens, UniProt Q92847)
Experiment Notes: Agonist activity at GHSR relative to full agonist
Type: functional
Lab note: cut-off is 80%. Strictly less in Activity is True. Exactly 80% or more is False.

Worked cases, answers included:
>  <Molecule>
CC(Oc1ccccc1)C(=O)N(Cc1ccccc1Cl)C[C@H]1CCCN1 (stereo partly specified)

>  <Study System>
Growth hormone secretagogue receptor type 1 (Homo sapiens, UniProt Q92847)

>  <Class Name>
False

$$$$
>  <Molecule>
Cc1cccc(CN(C[C@H]2CCCN2)C(=O)C(C)Oc2cccc(Cl)c2)c1 (stereo partly specified)

>  <Study System>
Growth hormone secretagogue receptor type 1 (Homo sapiens, UniProt Q92847)

>  <Class Name>
True

$$$$
>  <Molecule>
Cc1cccc(CN(C[C@H]2CCCN2)C(=O)C(C)Oc2ccccc2Cl)c1 (stereo partly specified)

>  <Study System>
Growth hormone secretagogue receptor type 1 (Homo sapiens, UniProt Q92847)

>  <Class Name>
True

$$$$

Given Cc1ccccc1CN(C[C@H]1CCCN1)C(=O)C(C)Oc1ccccc1 (stereo partly specified) , is recorded Activity strictly lower than 80%?
False

Criterion: Activity strictly below 80%. Is it met by CC(=O)Nc1ccc(N(C[C@H]2CCCN2)C(=O)C(C)Oc2ccccc2Cl)cc1 (stereo partly specified) ?
False
